Values were extracted from patent US4642340A.

experiment: Acute toxicity in mice; set-up: species or system Swiss NMRI mice; conditions: mouse, in vivo, oral, 10 days observation, read-out: DL50
Known LD50 at 240 h of a selection of molecules
measurement-type: LD50 at 240 h

molecule	measurement-type	measured
N[C@H]1C(O)O[C@H](CO)[C@@H](O)[C@@H]1O.O=S(=O)(O)O (some centres unmarked) [Glucosamine sulphate, glucosamine sulphate]	LD50 at 240 h	> 5000 mg/kg
N[C@H]1C(O)O[C@H](CO)[C@@H](O)[C@@H]1O (some centres unmarked) [Glucosamine-SP]	LD50 at 240 h	> 6250 mg/kg

----------
assay: Acute toxicity in mice; design: species or system Swiss NMRI mice; details: mouse, in vivo, im, intramuscular, max. dose 3750 mg/kg

compound	mortality at 240 h [%]
N[C@H]1C(O)O[C@H](CO)[C@@H](O)[C@@H]1O (stereo partly shown)	0
